- measurement description: Single ascending dose study, fasted and fed: safety and non-compartmental plasma PK
- Assay type: in vivo, healthy volunteers (human)
- run conditions: human, plasma, oral, 1600 mg, Harmonic Mean of 10 subjects; single 1600 mg dose, Fasted; read-out: t½ (converted)
parameter: half-life (h)
Use h as the unit, but write only the number.

Short answer for CC(C)(C)OC(=O)N[C@H]1CCCCC/C=C\[C@@H]2C[C@@]2(C(=O)NS(=O)(=O)C2CC2)NC(=O)[C@@H]2C[C@@H](OC(=O)N3Cc4cccc(F)c4C3)CN2C1=O : half-life was 2.29

* * *

- tested target: NS3-NS4 (Hepatitis C virus genotype 1a, UniProt P27958)
- Sequence (P27958 1027-1657): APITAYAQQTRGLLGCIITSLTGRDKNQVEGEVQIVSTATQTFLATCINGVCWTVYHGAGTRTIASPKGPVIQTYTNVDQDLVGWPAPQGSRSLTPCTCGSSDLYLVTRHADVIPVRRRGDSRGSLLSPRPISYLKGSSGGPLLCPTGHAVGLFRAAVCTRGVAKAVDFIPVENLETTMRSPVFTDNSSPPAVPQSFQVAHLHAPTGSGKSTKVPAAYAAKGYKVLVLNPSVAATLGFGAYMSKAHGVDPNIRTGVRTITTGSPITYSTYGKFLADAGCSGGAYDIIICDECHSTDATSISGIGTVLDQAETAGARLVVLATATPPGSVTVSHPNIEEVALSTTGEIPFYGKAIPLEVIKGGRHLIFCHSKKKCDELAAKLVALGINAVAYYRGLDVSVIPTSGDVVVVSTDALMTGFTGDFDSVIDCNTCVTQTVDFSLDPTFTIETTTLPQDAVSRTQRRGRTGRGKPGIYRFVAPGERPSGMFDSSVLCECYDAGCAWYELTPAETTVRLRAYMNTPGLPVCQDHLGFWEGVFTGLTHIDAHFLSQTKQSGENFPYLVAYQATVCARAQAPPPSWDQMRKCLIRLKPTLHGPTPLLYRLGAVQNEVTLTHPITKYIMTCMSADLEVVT
- Sequence (P27958 1658-1711): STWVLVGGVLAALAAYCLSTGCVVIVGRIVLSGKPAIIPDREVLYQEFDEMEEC
- measurement description: cell-based
- run conditions: EC50, NS3-NS4 activity
parameter: EC50

| structure | value reported |
| --- | --- |
| CC(C)(C)OC(=O)N[C@H]1CCCCC/C=C\[C@@H]2C[C@@]2(C(=O)NOCC2CC2)NC(=O)[C@@H]2C[C@@H](OC(=O)N3Cc4cccc(F)c4C3)CN2C1=O | < 100 nM |
| COc1ccc(S(=O)(=O)NC(=O)[C@@]23C[C@H]2CCCCCCC[C@H](NC(=O)OC(C)(C)C)C(=O)N2C[C@H](OC(=O)N4Cc5cccc(F)c5C4)C[C@H]2C(=O)N3)cn1 | < 100 nM |

Please look at the following molecule next.
Short answer for CC(C)(C)O[C@@H]1C[C@H]2C(=O)N[C@]3(C(=O)NS(=O)(=O)C4CC4)C[C@H]3/C=C\CCCCC[C@H](Nc3nc(-c4ccccc4)c(-c4ccccc4)s3)C(=O)N2C1 : EC50 was 1000 to 10000 nM

Origin of values: patent US20090155209A1
